Read-out: Human Leukocyte Antigen - DR isotype (HLADR), HLA-DRA (gene 3122)
experimentalDetails: BSK_BE3C_HLADR: BioMAP Diversity Plus: BE3C Assay for Human Leukocyte Antigen - DR isotype (HLADR) Biomarker Activity (AID 2283032)
condition: primary human bronchial epithelial cells; actives raise or lower the signal
The source made the active and inactive calls. Rule for the calls: active = hit-call score of the fitted dose curve at least 0.9, where 1 is the maximum; inactive = score below 0.9.
Mark one answer only. Choices: active, inactive

- O=c1[nH]c(=O)[nH]c(=O)[nH]1: inactive
- O=C(O)C(Cl)(Cl)Cl: inactive
- ClCC(Cl)CCl: inactive
- CC(C)(OO)c1ccccc1: inactive
- ClC(Cl)=C(Cl)C(Cl)=C(Cl)Cl: active

# outcome recorded in this test, key = O=C1C2(Cl)C3(Cl)C4(Cl)C(Cl)(Cl)C5(Cl)C3(Cl)C1(Cl)C5(Cl)C24Cl (stereo not drawn)
active

What is the recorded call for this compound in the test? CCC(C)(C)c1ccc(O)c(C(C)(C)CC)c1
active

These measurements were taken from PubChem BioAssay (EPA / NIEHS).
